system.name: dopamine binding sites
measurement.notes: Binding to dopamine sites with tritiated haloperidol
property.measured: IC50

Could you tell me which IC50 is on file for CNc1cc(OC)c(C(=O)NC2CN3CCC2CC3)cc1Cl (stereo not shown) ?
> 10 µM
